# Test system: SK-MEL-2 melanoma
# METHOD: NCI-60 one-dose screen, 48 h (100 = growth as untreated, 0 = no growth, -100 = all killed)
# STATED CONDITIONS: 10 µM unless noted
This is part of a sample that, as a whole, favours compounds with a hit. Of some 83,000 tested, about 20% had one in any assay.
Readings of growth for the listed compounds

| SMILES STR | DISPLAY UNIT | growth |
| --- | --- | --- |
| Cn1cc(-c2cc3nc(-c4c[nH]c5ccccc45)cc(N)n3n2)c2ccccc21 | % | -65.5 |
| COc1cc(NC(=O)CSc2nnc(-c3ccc(-c4nc5ccc(Cl)cc5[nH]4)cc3)o2)cc(OC)c1OC | % | 40.3 |
| N#CCc1nnc(NC(=O)c2ccc(-n3c(=O)[nH]c4ccccc4c3=O)cc2)s1 | % | 97.7 |
| COC(=O)c1c(C(=O)OC)c2c3ccccc3c3ccccc3n2c1C(=O)C(F)(F)F | % | 94.4 |
| Cc1nn(-c2ccccc2)c2nc(C)n(CC(=O)N/N=C/c3cccc([N+](=O)[O-])c3)c(=O)c12 | % | 101 |

----------
# Test system: SK-MEL-5 melanoma
# METHOD: NCI-60 one-dose screen, 48 h
# STATED CONDITIONS: 10 µM unless noted
This is part of a sample that, as a whole, favours compounds with a hit. Of some 83,000 tested, about 20% had one in any assay. Calls of active or inactive are those of the source. Rule for the calls: active = growth percent below 10; inactive = the rest.
Labels: active, inactive

| COMPOUND | ASSIGNED CLASS |
| --- | --- |
| C#CCN(C)CCCOc1ccc(N(C)C(=O)c2cc(C(C)C)c(O)cc2O)cc1Cl | active |
| COc1ccc(C(=O)/C=C/c2ccc3c(c2)OCCO3)cc1S(N)(=O)=O | inactive |
| COc1ccc2[nH]cc(-c3cc(N)n4nc(-c5c[nH]c6ccccc56)cc4n3)c2c1 | active |
| COc1ccc2[nH]cc(-c3cc4nc(-c5cn(C)c6ncccc56)cc(N)n4n3)c2c1 | active |
| COc1ccc2nc(NC(=O)c3ccc(N(C)C)cc3)sc2c1 | inactive |
| COc1ccc(NC(=O)N/N=C/c2c[nH]c3ccccc23)cc1 | inactive |
| Cc1ccc(-c2cc(C(=O)N=Nc3c(O)[nH]c4ccc(F)cc34)c3ccccc3n2)cc1 | inactive |
| CN1CCN(C(=O)Oc2cc3c(c4ccccc24)[C@H](CCl)CN3C(=O)c2cc3cc(OCCCN4CCC4)ccc3[nH]2)[C@H]2CSSC[C@H]21 | active |
| O=C(CSc1nnc(-c2ccc(-c3nc4ccc(Cl)cc4[nH]3)cc2)o1)Nc1ccc(Br)cc1 | active |
| Cc1nc(Nc2ccccn2)sc1C1=NNC(c2ccccc2F)C1 (stereo not given) | inactive |
| COC(=O)c1cc(C(=O)C(F)(F)F)n2c3ccccc3c3ccccc3c12 | inactive |
| COC(=O)CSC1=C(C)C(=O)C(OC)=C(OC)C1=O | inactive |
| CCCCCCCCCCCCCCCCCC(=O)Nc1ccc(OC)cc1 | inactive |
| O=C(Nc1ccc(Br)cc1)Nc1ccc(-c2ccc3c(c2)NC(=O)/C3=C\c2ccc[nH]2)cc1 | inactive |
| Cc1cccc(-c2ccccc2Oc2ccc3nnc(Cl)n3n2)c1 | inactive |
| Clc1ccc2c(NCCNC34CC5CC(CC(C5)C3)C4)ccnc2c1 | active |
| Nc1nnc(-c2cncc(Br)c2)c(-c2c[nH]c3ccc(Cl)cc23)n1 | inactive |
| CN(C(=O)CN1C(=O)/C(=C/c2ccco2)SC1=S)C1CCS(=O)(=O)C1 (stereo not given) | inactive |
| COc1ccc(NC(=O)Cn2c(/C=C/c3ccc([N+](=O)[O-])cc3)nc3ccccc3c2=O)cc1 | inactive |
| Cc1ccc(S(=O)(=O)N(CCn2ccnc2[N+](=O)[O-])CCn2ccnc2[N+](=O)[O-])cc1 | inactive |
